Source listed as FireProtDB (doi:10.1002/pro.5560010709).

B1: Ribonuclease pancreatic, P61823 (parent)
chain: MALKSLVLLSLLVLVLLLVRVQPSLGKETAAAKFERQHMDSSTSAASSSNYCNQMMKSRNLTKDRCKPVNTFVHESLADVQAVCSQKNVACKNGQTNCYQSYSTMSITDCRETGSSKYPNCAYKTTQANKHIIVACEGNPYVPVHFDASV

- Variants of: B1
- Test settings: Bos taurus; pH 4.2; Thermal; CD; Sodium acetate 0.01 M; NaCl 0.1 M; reversible: yes; structure 1RTB; whole UniProt chain shown
Measured attribute: Tm (°C)
Provide only the numeric value, understood in °C.

P140A | 45.5
P119S | 47.5
P140G | 45.5

Enquiry: # input variant: P119A P140G ; wanted: its Tm
Return: 36

Enquiry: # input variant: P119A ; wanted: its Tm
Return: 46.5
